Origin of values: patent US20070117743A1

Measured CC50 by item
system: HeLa-APL; test: SRB colorimetric assay of cell growth and viability, HeLa-APL; type: cell-based, human; settings: HELA-APL; 48 hours exposure; read-out: LC50 HELA-APL
Where a SMILES comes first, the peptide text is derived from it. Bridges are numbered along the chain shown (N, C = ends). [ ]: non-standard residue; d: D form. The star is where a group is joined. d(aIle) = CC[C@H](C)[C@@H](N)C(=O)O; d(aThr) = C[C@@H](O)[C@@H](N)C(=O)O; Hexanoyl(5-Me) = CC(C)CCCC(=O)*; Orn = NCCC[C@H](N)C(=O)O; Dhb = C/C=C(\N)C(=O)O
Field format: number, assumed µM, no unit text.

# molecule, system under test, readout kind, unit descriptor, numeric readout
measured = [
    ("C/C=C1\\NC(=O)[C@H](Cc2ccccc2)NC(=O)[C@@H](C(C)C)NC(=O)[C@@H]([C@@H](C)CC)NC(=O)[C@H](NC(=O)[C@H](NC(=O)[C@H](CCCNC(=O)CCCC[C@@H]2SC[C@@H]3NC(=O)N[C@@H]32)NC(=O)[C@H]2CCCN2C(=O)[C@H](NC(=O)[C@@H](NC(=O)[C@@H](NC(=O)[C@H](NC(=O)CCCC(C)C)C(C)C)[C@@H](C)O)C(C)C)C(C)C)[C@@H](C)CC)[C@@H](C)OC(=O)[C@H](C(C)C)NC1=O [Compound 99, [Orn(Biot)^8]-Kahalalide F]", "HeLa-APL", "CC50", "µM", 4.65),
]

Turning to the following molecule.
Value of CC50 reported for the molecule C/C=C1\NC(=O)[C@H](Cc2ccccc2)NC(=O)[C@@H](C(C)C)NC(=O)[C@@H]([C@@H](C)CC)NC(=O)[C@H](NC(=O)[C@H](NC(=O)[C@H](CCCN)NC(=O)[C@H]2CCCN2C(=O)[C@H](NC(=O)[C@@H](NC(=O)[C@H](C)NC(=O)[C@H](NC(=O)CCCC(C)C)C(C)C)C(C)C)C(C)C)[C@@H](C)CC)[C@@H](C)OC(=O)[C@H](C(C)C)NC1=O [Compound 112, [Ala^12]-KF] ({Hexanoyl(5-Me)}-[dV]AV[dV][dP][Orn][d(aIle)][d(aThr)][d(aIle)][dV]F[Dhb]V; ester 8-C) is 5.75

###

test system: SK-MEL-28; assay: SRB colorimetric assay of cell growth and viability, SK-MEL-28; type: cell-based, human; details: 48 hours exposure
Where a SMILES comes first, the peptide text is derived from it. Bridges are numbered along the chain shown (N, C = ends). [ ]: non-standard residue; d: D form. The star is where a group is joined. d(aIle) = CC[C@H](C)[C@@H](N)C(=O)O; d(aThr) = C[C@@H](O)[C@@H](N)C(=O)O; Hexanoyl(5-Me) = CC(C)CCCC(=O)*; Orn = NCCC[C@H](N)C(=O)O; Dhb = C/C=C(\N)C(=O)O
readout kind: GI50
Give the figure together with its unit, number first.

# compound, readout kind, result
records = [
    ("C/C=C1\\NC(=O)[C@H](Cc2ccccc2)NC(=O)[C@@H](C(C)C)NC(=O)[C@@H]([C@@H](C)CC)NC(=O)[C@H](NC(=O)[C@H](NC(=O)[C@H](CCCN)NC(=O)[C@H]2CCCN2C(=O)[C@H](NC(=O)[C@@H](NC(=O)[C@H](CC(C)C)NC(=O)CCCC(C)C)C(C)C)C(C)C)[C@@H](C)CC)[C@@H](C)OC(=O)[C@H](C(C)C)NC1=O [Compound 54, [Leu^12, noD-Val^13]-KF] ({Hexanoyl(5-Me)}-LV[dV][dP][Orn][d(aIle)][d(aThr)][d(aIle)][dV]F[Dhb]V; ester 7-C)", "GI50", "1.24 µM"),
]

Form: compound = C/C=C1\NC(=O)[C@H](Cc2ccccc2)NC(=O)[C@@H](C(C)C)NC(=O)[C@@H]([C@@H](C)CC)NC(=O)[C@H](NC(=O)[C@H](NC(=O)[C@H](CCCN)NC(=O)[C@H]2CCCN2C(=O)[C@H](NC(=O)[C@@H](NC(=O)[C@@H](NC(=O)[C@H](NC(=O)Cc2cc(F)cc(F)c2)C(C)C)[C@@H](C)O)C(C)C)C(C)C)[C@@H](C)CC)[C@@H](C)OC(=O)[C@H](C(C)C)NC1=O [Compound 22, [3,5-dFPhAc^14]-KF] ; GI50 = 2.5 µM
